# TESTED TARGET: HDAC2 Human recombinant C-terminal FLAG-tag (Homo sapiens, UniProt Q92769)
# Construct: FLAG (C); purchased BPS Bioscience 50052
# Sequence (Q92769 whole entry): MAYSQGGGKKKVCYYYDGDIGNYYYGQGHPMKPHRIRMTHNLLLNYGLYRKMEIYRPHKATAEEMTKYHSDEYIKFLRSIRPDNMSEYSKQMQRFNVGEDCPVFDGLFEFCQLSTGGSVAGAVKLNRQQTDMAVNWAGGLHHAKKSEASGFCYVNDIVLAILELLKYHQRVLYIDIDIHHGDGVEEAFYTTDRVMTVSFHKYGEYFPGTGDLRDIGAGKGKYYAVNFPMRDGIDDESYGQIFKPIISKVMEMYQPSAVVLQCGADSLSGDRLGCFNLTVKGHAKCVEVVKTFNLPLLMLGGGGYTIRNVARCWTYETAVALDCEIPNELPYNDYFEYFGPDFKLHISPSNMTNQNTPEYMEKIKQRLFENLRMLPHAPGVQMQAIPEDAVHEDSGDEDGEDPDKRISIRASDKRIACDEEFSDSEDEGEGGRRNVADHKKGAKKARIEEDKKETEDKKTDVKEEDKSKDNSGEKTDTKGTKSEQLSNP
# PROTOCOL DETAILS: Measurement of HDAC2 enzyme inhibitory activity (HTRF)
# Type: biochemical
# ASSAY CONDITIONS: recombinant HDAC2, H3K9ac peptide, 3 hours room temperature; read-out: HDAC2 IC50
Exam item: assign yes to entries whose IC50 is below 200 nM and no to entries at or above 200 nM. Note that a value of exactly 200 nM receives no.

1. Cn1cc(-c2ccc(C(=O)Nc3nc(-c4cncs4)ccc3N)nc2)cn1	no
2. Cn1cc(-c2ccc(N)c(NC(=O)c3cnc(OC4CCOCC4)cn3)c2)cn1	no
3. Nc1ccc(-c2ccc(F)nc2)cc1NC(=O)c1cnc(-n2cncn2)cn1	yes

## Task Field: below-cutoff. Rule: recorded IC50 strictly less than 200 nM. Subject: Cn1cc(-c2ccc(C(=O)Nc3cc(-c4cncs4)ccc3N)nc2)nn1 [Compound I-047]
## Result yes

## Task Try the molecule Cn1cc(-c2cnc(C(=O)Nc3cc(-c4cccs4)ccc3N)cn2)cn1 [Compound I-007]
## Result yes

## Task Try the molecule `Cn1cc(-c2ccc(N)c(NC(=O)c3cc(-c4cnn(C)c4)on3)c2)cn1`
## Result no

## Task Try the molecule `Nc1ccc(-c2ccccc2)nc1NC(=O)c1ccc2c(n1)OCO2`
## Result no

The reported numbers originate from patent US20230119479A1.
